Reference for the values: BindingDB's records for doi:10.1016/j.ejmech.2021.113764

Consider the following compounds; for each one, report its pIC50.
# protocol-summary: Antagonist activity at PAR4 in ICR mouse platelet-rich plasma assessed as inhibition of PAR4 AP AYPGKF-NH2-induced platelet aggregation by photo-turbidimetry assay
Answers are plain numbers, as −log10 of the molar value.

smiles-entry	pIC50
Cc1cc(-c2nn3cc(C)nc3s2)c2ccn(C)c(=O)c2c1	5.49
Cc1cc(-c2nc3c(s2)CCCC3)c2nc[nH]c(=O)c2c1	5.86
Cc1cc(-c2ccc(Cl)cc2Cl)c2ncn(C)c(=O)c2c1	5.91
CSc1nn2cc(-c3cc4ccccc4o3)nc2s1	6.03

Next:
Give the reported value of pIC50 for this record: Cc1cc(-c2nc3c(s2)CCCC3)c2nc(C)n(C)c(=O)c2c1 5.09
